B1: VH:VL chains; a variant is named by its letters at X, in order (parent)
chain 1: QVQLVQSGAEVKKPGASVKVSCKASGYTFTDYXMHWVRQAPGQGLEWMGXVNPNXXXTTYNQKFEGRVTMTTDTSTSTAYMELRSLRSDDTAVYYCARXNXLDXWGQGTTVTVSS
chain 2: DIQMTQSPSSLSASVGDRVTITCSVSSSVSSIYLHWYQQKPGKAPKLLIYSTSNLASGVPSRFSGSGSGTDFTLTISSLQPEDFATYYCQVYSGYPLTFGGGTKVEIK

- Variants of: B1
- procedureSummary: yeast display scFab, FACS + sequencing
endpoint: non-specific binding call

In the examples that follow, each entry is paired with its recorded non-specific binding call.
YTAGSDGA; no binding
DARGGAGA; no binding
YRRRGDVD; binds
YRGKGAAS; binds
FRKGGAAA; binds

// query Please indicate non-specific binding call recorded for `VKGEGYGA`
// result binds

// query Please indicate non-specific binding call recorded for `YRARSAGA`
// result binds

// query Please indicate non-specific binding call recorded for `YRAGDDVA`
// result no binding

// query Please indicate non-specific binding call recorded for SAAGGDGV chain 1 L45S
// result no binding

// query Please indicate non-specific binding call recorded for `DRAGDDVV`
// result no binding

// query Please indicate non-specific binding call recorded for `VEGGGSSS`
// result no binding

// query Please indicate non-specific binding call recorded for `FKGRDSGS`
// result binds

// query Please indicate non-specific binding call recorded for `YTKEASGY`
// result binds

// query Please indicate non-specific binding call recorded for `VTTGSASF`
// result no binding

// query Please indicate non-specific binding call recorded for VEGADAVA chain 1 G106S
// result no binding

// query Please indicate non-specific binding call recorded for `YRGRSASY`
// result binds

// query Please indicate non-specific binding call recorded for `FRTEGSAD`
// result binds

// query Please indicate non-specific binding call recorded for `SRGGSALA`
// result no binding

// query Please indicate non-specific binding call recorded for `FATTDSVD`
// result no binding

// query Please indicate non-specific binding call recorded for `VAGAGDSV`
// result no binding
